B1: SLC35F2 (parent)
chain: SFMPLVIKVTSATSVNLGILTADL

- Variants of: B1
- Assay comment: protein stability index of a GFP-peptide fusion (GPS, HEK-293T) (PSI 1-6); higher = more stable;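 note: lentivirally expressed fusions sorted by FACS into six bins by GFP to DsRed ratio, PSI derived from sequencing read proportions per bin multiplied by bin number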
- Experimental setup: c terminus: a fixed tail appended
Readout label: protein stability index
Answer field: number only, no words.

Examples from the recorded data:
1) K8E = 3.06
2) T21P = 2.5
3) S11V = 2.64
4) S1A = 3.22
5) L5E = 1.51
6) T21Y = 3.83
7) A12V = 2.75
8) A22F = 2.92

[ask] Sample `I19K` — what was its protein stability index?
[reply] 2.68

[ask] Fill in: protein stability index of `F2M` is ___
[reply] 2.47

[ask] Quick one: protein stability index for `L20P` ?
[reply] 2.38

[ask] Suppose we examine the variant `F2Q` ; what protein stability index value has been reported?
[reply] 3.56

[ask] Fill in the blank: the reported protein stability index of `V6M` is ____.
[reply] 1.36

[ask] # lookup: protein stability index of `L17H`
[reply] 2.92

[ask] Please give the measured protein stability index for this variant: `V9T`
[reply] 1.46

[ask] Endpoint output: protein stability index of `N16M` . Value?
[reply] 3.88

[ask] Requested read-out: protein stability index. Entry: `K8A`
[reply] 2.83

Numbers sourced from the supplement of paper PMC10567573.
